recorded-endpoint: logP
Reply: number alone, nothing else.

Prompt line: Any idea what logP was measured for CCN(C(=O)CCl)c1ccccc1C ?
Response line: 2.82

Prompt line: Any idea what logP was measured for O=C(CCl)N(Cc1ccccc1)c1cccc(Cl)c1 ?
Response line: 4.28

Prompt line: Any idea what logP was measured for CCOP(=S)(Oc1ccc(Cl)cc1Cl)SCC(=O)N(CC)c1ccccc1C (stereo not given) ?
Response line: 2.82

Prompt line: Any idea what logP was measured for CCN(C(=O)CSP(=S)(OC)OC)c1ccccc1 ?
Response line: 2.26

Prompt line: Any idea what logP was measured for CCOC(=O)CN(C(=O)CCl)c1cccc(Cl)c1 ?
Response line: 2.42

###

recorded-endpoint: logP
Reply: number alone, nothing else.

Prompt line: Any idea what logP was measured for CCOC(=O)CN(C(=O)CSP(=S)(OC)OC)c1ccccc1Cl ?
Response line: 2.42

Prompt line: Any idea what logP was measured for C=CCN(C(=O)CSP(=S)(OC)OC)c1ccccc1C ?
Response line: 2.93

Prompt line: Any idea what logP was measured for C=CCN(C(=O)CSP(=S)(OC)OC)c1ccc(Cl)cc1 ?
Response line: 3.19

Prompt line: Any idea what logP was measured for CCOC(=O)CN(C(=O)CCl)c1ccc(Cl)cc1 ?
Response line: 2.15

Prompt line: Any idea what logP was measured for CCN(C(=O)CCl)c1ccccc1 ?
Response line: 2.26

Prompt line: Any idea what logP was measured for O=C(CCl)N(Cc1ccccc1)c1ccccc1 ?
Response line: 3.13

Prompt line: Any idea what logP was measured for COP(=S)(OC)SCC(=O)N(c1ccccc1)C(C)C ?
Response line: 2.5

Prompt line: Any idea what logP was measured for CCN(C(=O)CSP(=S)(OC)OC)c1ccc(C)cc1 ?
Response line: 2.81

Prompt line: Any idea what logP was measured for CCOC(=O)CN(C(=O)CSP(=S)(OC)OC)c1ccc(Cl)cc1 ?
Response line: 2.15

Prompt line: Any idea what logP was measured for CCOC(=O)C(C)N(C(=O)CSP(=S)(OC)OC)c1cccc(Cl)c1 (stereo not given) ?
Response line: 3.68

Prompt line: Any idea what logP was measured for O=C(CCl)N(Cc1ccccc1)c1ccc(Cl)cc1 ?
Response line: 4.09

Prompt line: Any idea what logP was measured for COP(=S)(OC)SCC(=O)N(Cc1ccccc1)c1ccc(Cl)cc1 ?
Response line: 4.09

Prompt line: Any idea what logP was measured for COP(=S)(OC)SCC(=O)N(Cc1ccccc1)c1ccccc1 ?
Response line: 3.13

Prompt line: Any idea what logP was measured for C=CCN(C(=O)CCl)c1ccc(C)cc1 ?
Response line: 2.92

Prompt line: Any idea what logP was measured for CCN(C(=O)CSP(=S)(OC)OC)c1ccccc1C ?
Response line: 2.82

Prompt line: Any idea what logP was measured for CCCN(C(=O)CCl)c1ccc(Cl)cc1 ?
Response line: 3.62

Prompt line: Any idea what logP was measured for CCOC(=O)[C@H](C)N(C(=O)CCl)c1ccc(Cl)cc1 ?
Response line: 2.75

Prompt line: Any idea what logP was measured for CCOC(=O)C(C)N(C(=O)CSP(=S)(OC)OC)c1ccc(Cl)cc1 (stereo not given) ?
Response line: 2.75

Prompt line: Any idea what logP was measured for CCOC(=O)[C@H](C)N(C(=O)CCl)c1ccccc1 ?
Response line: 1.79

Prompt line: Any idea what logP was measured for CCOP(=S)(Oc1ccc(Cl)cc1Cl)SCC(=O)N(CC)c1ccc(C)cc1 (stereo not given) ?
Response line: 2.82

Prompt line: Any idea what logP was measured for C=CCN(C(=O)CSP(=S)(OC)OC)c1ccc(C)cc1 ?
Response line: 2.92

Prompt line: Any idea what logP was measured for CCOC(=O)C(C)N(C(=O)CSP(=S)(OC)OC)c1ccccc1 (stereo not given) ?
Response line: 1.79

Prompt line: Any idea what logP was measured for C=CCN(C(=O)CCl)c1ccc(Cl)cc1 ?
Response line: 3.19

Prompt line: Any idea what logP was measured for C=CCN(C(=O)CCl)c1cccc(Cl)c1 ?
Response line: 3.38

Prompt line: Any idea what logP was measured for CCOC(=O)CN(C(=O)CSP(=S)(OC)OC)c1ccccc1 ?
Response line: 1.19
